FYI, the data here is from ChEMBL document CHEMBL1138801.

Catalogue of molecules with associated EC50
Test system: KB 3-1
Assay: Concentration that causes 50% of maximum vinblastine accumulation in KB/MDR cells in 1 h
Type: functional, cell-based
Settings: Homo sapiens, KB 3-1, 1 h; read-out: EC50
Observable: EC50 (nM)

{"Mol Smiles": "CC(=O)Oc1cc2oc(-c3ccccc3)cc(=O)c2c(OC(C)=O)c1OC(C)=O", "Observable": "EC50", "Observed": 6800}
{"Mol Smiles": "CCCCCOc1cc2oc(-c3ccccc3)cc(=O)c2c(O)c1OCCCCC", "Observable": "EC50", "Observed": 1800}
{"Mol Smiles": "CCCOc1c(O)cc2oc(-c3ccccc3)cc(=O)c2c1O", "Observable": "EC50", "Observed": 2000}
{"Mol Smiles": "COc1cc2oc(-c3ccccc3)cc(=O)c2c(O)c1OC", "Observable": "EC50", "Observed": 4600}
{"Mol Smiles": "CCOc1c(OC)cc2oc(-c3ccccc3)cc(=O)c2c1O", "Observable": "EC50", "Observed": 1500}
{"Mol Smiles": "CCOc1cc2oc(-c3ccccc3)cc(=O)c2c(O)c1OCC", "Observable": "EC50", "Observed": 1800}
{"Mol Smiles": "CCCCOc1cc2oc(-c3ccccc3)cc(=O)c2c(O)c1OCCCC", "Observable": "EC50", "Observed": 1500}
{"Mol Smiles": "CCOc1c(O)cc2oc(-c3ccccc3)cc(=O)c2c1O", "Observable": "EC50", "Observed": 2300}
{"Mol Smiles": "CCCOc1cc2oc(-c3ccccc3)cc(=O)c2c(OC)c1OCCC", "Observable": "EC50", "Observed": 900}
{"Mol Smiles": "CC(=O)Oc1cc2oc(-c3ccccc3)cc(=O)c2c(O)c1OC(C)=O", "Observable": "EC50", "Observed": 9700}
{"Mol Smiles": "CC(=O)Oc1cc2oc(-c3ccccc3)cc(=O)c2c(O)c1OCc1ccccc1", "Observable": "EC50", "Observed": 2400}
{"Mol Smiles": "O=c1cc(-c2ccccc2)oc2cc3c(c(O)c12)OCO3", "Observable": "EC50", "Observed": 6500}
{"Mol Smiles": "COc1c2c(cc3oc(-c4ccccc4)cc(=O)c13)OCO2", "Observable": "EC50", "Observed": 4400}

----------
Test system: KB 3-1
Assay: Maximum intracellular vinblastine accumulation of the KB/MDR cells caused by the compound in 1 h
Type: functional, Homo sapiens
Catalogue of compounds with associated Amax

{"Compound": "COc1cc2oc(-c3ccccc3)cc(=O)c2c(OC)c1OC [BAICALEIN TRIMETHYL ETHER]", "Units": "pmol/10^6 cells", "Amax": 2.7}
{"Compound": "CCCCCCOc1cc2oc(-c3ccccc3)cc(=O)c2c(O)c1OCCCCCC", "Units": "pmol/10^6 cells", "Amax": 1}
{"Compound": "C/C=C/C[C@@H](C)[C@@H](O)[C@H]1C(=O)N[C@@H](CC)C(=O)N(C)CC(=O)N(C)[C@@H](CC(C)C)C(=O)N[C@@H](C(C)C)C(=O)N(C)[C@@H](CC(C)C)C(=O)N[C@@H](C)C(=O)N[C@H](C)C(=O)N(C)[C@@H](CC(C)C)C(=O)N(C)[C@@H](CC(C)C)C(=O)N(C)[C@@H](C(C)C)C(=O)N1C [CYCLOSPORINE]", "Units": "pmol/10^6 cells", "Amax": 3.5}
{"Compound": "CC(=O)Oc1cc2oc(-c3ccccc3)cc(=O)c2c(OCc2ccccc2)c1OC(C)=O", "Units": "pmol/10^6 cells", "Amax": 3.6}
{"Compound": "CCCOc1c(OC)cc2oc(-c3ccccc3)cc(=O)c2c1O", "Units": "pmol/10^6 cells", "Amax": 4.6}
{"Compound": "CCOc1cc2oc(-c3ccccc3)cc(=O)c2c(O)c1OCC", "Units": "pmol/10^6 cells", "Amax": 4.9}
{"Compound": "COc1ccc(CCN(C)CCCC(C#N)(c2ccc(OC)c(OC)c2)C(C)C)cc1OC (centres undefined) [VERAPAMIL]", "Units": "pmol/10^6 cells", "Amax": 2.2}
{"Compound": "CCCOc1c(O)cc2oc(-c3ccccc3)cc(=O)c2c1O", "Units": "pmol/10^6 cells", "Amax": 4.7}
{"Compound": "O=c1cc(-c2ccccc2)oc2cc3c(c(O)c12)OCO3", "Units": "pmol/10^6 cells", "Amax": 1.2}
